- Tested on: MOLP-8 human multiple myeloma cell line
- assay_name: MOLP8 Caspase-Glo 3/7 apoptosis induction assay
- Assay type: cell-based
- condition_label: MOLP-8 cells, 2 hours at 37° C.; 30 μM highest conc.; averaged over all runs on all batches
Response field label takes Met when AC50 is strictly below 1000 nM and Not met in all other cases.

Incoming: Is 1000 nM strictly greater than the compound's reported AC50? compound: Cn1nc2cc1CCc1cc(c3ccc(F)cc3c1)OCCCc1c(C(=O)O)[nH]c3c(c(Cl)ccc13)-c1c(cnn1C)CSC2 (single isomer, unassigned) [Compound 25]
Outgoing: Not met

Incoming: Is 1000 nM strictly greater than the compound's reported AC50? compound: COCCOCc1nn(C)c2c1CSCc1cc(n(C)n1)CCc1cc(c3ccccc3c1)OCCCc1c(C(=O)O)n(C)c3c-2c(Cl)ccc13 (single isomer, unassigned) [Compound 3]
Outgoing: Not met

Incoming: Is 1000 nM strictly greater than the compound's reported AC50? compound: Cc1nn(C)c2c1CSCc1cc(n(C)n1)CCc1cc(c3ccccc3c1)OCCCc1c(C(=O)O)n(C)c3c-2c(Cl)ccc13 (single isomer, unassigned) [Compound 11a]
Outgoing: Not met

Incoming: Is 1000 nM strictly greater than the compound's reported AC50? compound: COCCn1c(C(=O)O)c2c3ccc(Cl)c(c31)-c1c(cnn1C)CSCc1cc(n(C)n1)CCc1cc(c3ccc(F)cc3c1)OCCC2 (single isomer, unassigned) [Compound 24]
Outgoing: Not met

Incoming: Is 1000 nM strictly greater than the compound's reported AC50? compound: Cc1nn(C)c2c1CSCc1cc(n(C)n1)CCc1cc(c3ccccc3c1)OCCCc1c(C(=O)O)n(C)c3c-2c(Cl)ccc13 (single isomer, unassigned) [Compound 12a]
Outgoing: Met

Incoming: Is 1000 nM strictly greater than the compound's reported AC50? compound: Cn1nc2cc1CCc1cc(c3ccc(F)cc3c1)OCCCc1c(C(=O)O)n(CCN3CCOCC3)c3c(c(Cl)ccc13)-c1c(cnn1C)CSC2 (single isomer, unassigned) [Compound 19]
Outgoing: Not met

Incoming: Is 1000 nM strictly greater than the compound's reported AC50? compound: Cn1nc2cc1CCc1cc(c3ccc(F)cc3c1)OCCCc1c(C(=O)O)[nH]c3c(c(Cl)ccc13)-c1c(cnn1C)CSC2 (single isomer, unassigned) [Compound 26]
Outgoing: Met

Incoming: Is 1000 nM strictly greater than the compound's reported AC50? compound: COCCOCc1nn(C)c2c1CSCc1cc(n(C)n1)CCc1cc(c3ccc(F)cc3c1)OCCCc1c(C(=O)O)n(C)c3c-2c(Cl)ccc13 (single isomer, unassigned) [Compound 7]
Outgoing: Not met

Incoming: Is 1000 nM strictly greater than the compound's reported AC50? compound: COCCOCc1nn(C)c2c1CSCc1cc(n(C)n1)CCc1cc(c3ccc(F)c(F)c3c1)OCCCc1c(C(=O)O)n(C)c3c-2c(Cl)ccc13 (single isomer, unassigned) [Compound 15]
Outgoing: Not met

Incoming: Is 1000 nM strictly greater than the compound's reported AC50? compound: COCCOCc1nn(C)c2c1CSCc1cc(n(C)n1)CCc1cc(c3ccccc3c1)OCCCc1c(C(=O)O)n(C)c3c-2c(Cl)ccc13 (single isomer, unassigned) [Compound 4]
Outgoing: Met
